Tested on: α7 integrin (LacZ reporter in α7LacZ+/− myoblasts)
EXPERIMENT_NOTES: qHTS of the LOPAC library and MLSMR (online screen, α7LacZ+/− myoblasts)
CONDITION_NOTES: Mus musculus, Myoblast, 48 h, read-out: Activity at 0.307 uM [%] **
Each entry gets false if its activation at 0.307 µM stays under -20%, and true if its activation at 0.307 µM is -20% or above.

These recorded examples may help you get a feel for the data.
O=C(COC(=O)Cn1cnc2ccccc21)Nc1cccc([N+](=O)[O-])c1 :: true
Cc1nc2c([nH]1)OC(N)=C(C#N)C21CCN(Cc2ccccc2)CC1 :: true
CCC(CC)C(=O)Nc1c(C(=O)N2CCN(c3ccccc3)CC2)oc2ccccc12 :: true
CCCOc1nc(SCCC)nc2c1cnn2-c1ccccc1 :: false
CCOC(=O)Cc1csc(NC(=S)NC(=O)c2cc(OC)c(OC)c(OC)c2)n1 :: true
Cn1ccc(C(=O)Nc2cccnc2Cl)n1 :: true
CC(/C=C(\O)c1ccccc1)=N\c1ccc(Br)c(Cl)c1 :: true
O=C(CCc1ccccc1)c1nnc(-c2ccccc2)o1 :: true
COc1ccc2oc(C[S+]([O-])c3ccccc3)c(C(=O)O)c2c1 (stereo not drawn) :: true
COCc1c(C(=O)OCc2nc(=O)c3sccc3[nH]2)oc2ccccc12 :: false

Textbook exercise: given the entry COc1ccccc1CNS(=O)(=O)c1ccc(Cl)s1 , state whether its activation at 0.307 µM is greater than or equal to -20%.
false

# iterate: CCOc1ccc2ccccc2c1C1NC(=O)N(C)C(C)=C1C(=O)OCCOC (stereo not drawn)
true

# iterate: COc1ccc(-c2csc3ncnc(N4CCN(c5ccccc5[N+](=O)[O-])CC4)c23)cc1
true

# iterate: CCS(=O)(=O)N1CCN(c2ccc([N+](=O)[O-])c(NCC3CCCO3)c2)CC1 (stereo not drawn)
true

# iterate: O=C(Cn1nc(-c2ccc(Cl)cc2)ccc1=O)N1CCC2(CC1)OCCO2
true

# iterate: COc1ccccc1OCC(=O)N/N=C1/C=C(C)CC1
false

# iterate: COC(=O)C1=NNC2(C)C(=O)N(c3ccc(C)cc3)C(=O)C12 (stereo not drawn)
true

# iterate: CCOC(=O)C1=C(NC(=O)c2ccc(OC)c(S(=O)(=O)N3CCCCC3C)c2)Nc2ccccc2N=C1CC (stereo not drawn)
true
